From: patent US8088818B2

# Test system: coronary artery
# protocol-description: Flow rate of the coronary artery in the isolated perfused rat heart (Langendorff)
# test-context: conc. 0.3 (unit printed .[…]M), isolated Wistar rat heart
The label is criterion met for coronary flow below 10 mL/min and criterion not met for coronary flow equal to or exceeding 10 mL/min.

molecule: O=C(C=Cc1ccc(O)c(O)c1)NCc1cccc(F)c1 [Compound 638I]
category-label: criterion met
--
molecule: O=C(C=Cc1ccc(O)c(O)c1)Nc1ccc(O)cc1 [Compound 638H]
category-label: criterion met
--
molecule: O=C(/C=C/c1ccc(O)c(O)c1)NCCc1ccccc1 [370G (45)]
category-label: criterion not met
--
molecule: CN(CCc1ccccc1)C(=O)C=Cc1ccc(O)c(O)c1 [Compound 642B]
category-label: criterion not met
--
molecule: CN(Cc1ccccc1)C(=O)C=Cc1ccc(O)c(O)c1 [Compound 642A]
category-label: criterion not met

* * *

# System: coronary artery
# protocol-description: Flow rate of the coronary artery in the isolated perfused rat heart (Langendorff)
# test-context: conc. 1 (unit printed .[…]M), isolated Wistar rat heart
coronary flow values for the compounds below.
assay-endpoint: coronary flow

compound: CN(CCc1ccccc1)C(=O)C=Cc1ccc(O)c(O)c1 [Compound 642B]
endpoint-value: 12.8 ± 1.9 mL/min
--
compound: O=C(/C=C/c1ccc(O)c(O)c1)NCCc1ccccc1 [370G (45)]
endpoint-value: 15.6 ± 1.2 mL/min
--
compound: CN(Cc1ccccc1)C(=O)C=Cc1ccc(O)c(O)c1 [Compound 642A]
endpoint-value: 16.8 ± 1.6 mL/min
--
compound: COc1cc(/C=C/C(=O)NCCc2ccccc2)ccc1O
endpoint-value: 10.3 ± 1.5 mL/min
--
compound: CC(=O)Oc1ccc(C=CC(=O)NCCc2ccccc2)cc1OC(C)=O
endpoint-value: 9.0 ± 0.4 mL/min
--
compound: O=C(C=Cc1ccc(O)c(O)c1)NCc1cccc(F)c1 [Compound 638I]
endpoint-value: 7.6 ± 0.8 mL/min
--
compound: O=C(C=Cc1ccc(O)c(O)c1)Nc1ccc(O)cc1 [Compound 638H]
endpoint-value: 9.1 ± 0.5 mL/min
